test: Sample hygroscopicity test: H2O content before and after 24 hours at 100% humidity; format: physicochemical; details: 24 hours, 100% humidity, closed vessel over water; Fischer titration
QUANTITY_NAME: H2O content after 24 hours maintenance at 100% humidity

>>> measured_result("C[N+](C)(C)NCCC(=O)O.O=C([O-])C=CC(=O)O [Meldoniuma maleate (1:1)]")
"4.6844%"
>>> measured_result("C[N+](C)(C)NCCC(=O)[O-].C[N+](C)(C)NCCC(=O)[O-].O=C(O)C=CC(=O)O [Meldonium fumarate (2:1)]")
"13.4707%"
>>> measured_result("C[N+](C)(C)NCCC(=O)[O-].C[N+](C)(C)NCCC(=O)[O-].O.O=C(O)C(O)C(O)C(O)C(O)C(=O)O (stereo not shown)")
"7.6830%"

====

Assay: Sample hygroscopicity test: H2O content before and after 24 hours at 100% humidity
Type: physicochemical
Conditions: 24 hours, 100% humidity, closed vessel over water; Fischer titration
Method: Sample hygroscopicity was tested by H2O content determination before the test and after 24 hours maintenance at 100% humidity (keeping in a closed vessel over water). On such conditions, Meldonium absorbs 10% water (as to mass increase) during 24 hours. Water content was determined by titration by Fischer's method; in cases of syrup formation water content is determined by sample mass increase.
Below, each entry is listed with its recorded H2O content after 24 hours maintenance at 100% humidity.
QUANTITY_NAME: H2O content after 24 hours maintenance at 100% humidity (%)

>>> measured_result("C[N+](C)(C)NCCC(=O)O.C[N+](C)(C)NCCC(=O)O.NCCS(=O)(=O)[O-].NCCS(=O)(=O)[O-].O.O.O")
17.0854
>>> measured_result("C[N+](C)(C)NCCC(=O)[O-].O=C(O)C(O)C(O)C(O)C(O)C(=O)O (centres unmarked) [Meldonium mucate (galactarate; 1:1)]")
12.8
>>> measured_result("C[N+](C)(C)NCCC(=O)O.O=C([O-])C(=O)O [Meldonium oxalate (1:1)]")
3.1211

====

assay: Sample hygroscopicity test: H2O content before and after 24 hours at 100% humidity; type: physicochemical; conditions: 24 hours at 100% humidity
QUANTITY_NAME: Sample mass increase due to absorbed water (%)

>>> measured_result("C[N+](C)(C)NCCC(=O)O.C[N+](C)(C)NCCC(=O)O.O=S(=O)([O-])[O-] [Meldonium sulfate (2:1)]")
11.8
>>> measured_result("C[N+](C)(C)NCCC(=O)O.O=C([O-])C(Cl)Cl [Meldonium dichloroacetate (1:1)]")
12
>>> measured_result("C[N+](C)(C)NCCC(=O)[O-].C[N+](C)(C)NCCC(=O)[O-].O=C(O)C=CC(=O)O [Meldonium maleate (2:1)]")
18
>>> measured_result("C[N+](C)(C)NCCC(=O)O.O=S(=O)([O-])O [Meldonium sulfate (1:1)]")
20
>>> measured_result("C[N+](C)(C)NCCC(=O)[O-].O.O.O=C([O-])CCC(=O)[O-].[Mg+2]")
20
>>> measured_result("CN(CC(=O)O)C(=N)N.C[N+](C)(C)NCCC(=O)[O-].O.O.O [Meldonium creatinate (1:1; ×3H2O)]")
18
>>> measured_result("C[N+](C)(C)NCCC(=O)O.O.O=C([O-])c1cc2ccccc2c(Cc2c(O)c(C(=O)O)cc3ccccc23)c1O [Meldonium pamoate (1:1; ×H2O)]")
9
>>> measured_result("C[N+](C)(C)NCCC(=O)O.NC(CC(=O)O)C(=O)[O-].O.O [Meldonium L-(+)-aspartate (1:1; ×2H2O)]")
18
